All values here come from paper PMC9482650.

target_desc: PARD3_3, Q8TEW0
Sequence (Q8TEW0 582-685): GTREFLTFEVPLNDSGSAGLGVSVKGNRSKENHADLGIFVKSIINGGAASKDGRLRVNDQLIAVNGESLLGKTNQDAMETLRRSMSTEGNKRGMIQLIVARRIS
assay_explanation: holdup assay
Design: key: below the threshold = too weak to quantify, mostly under pKd 3.1 to 4
cond: plain residues with an end cap or a label only (N-terminal biotin on a linker: ttds)
Kindly state pKd for each of the entries shown.
// no unit string in output, number only

query: pKd for QSARYRDTEL [TJP2, Q9UDY2] ?
result: 3.7

query: pKd for GQDSREETQL [KCNT2, Q6UVM3] ?
result: 4.04

query: pKd for IYVPEAQTRL [DLGAP4, Q9Y2H0] ?
result: 3.87
